FYI, the data here is from ChEMBL document CHEMBL1157857.

Test system: Pseudomonas aeruginosa
Assay: Antibacterial activity against Pseudomonas aeruginosa at 2 mg/ml after 24 hrs by agar diffusion method
Assay type: functional
Conditions: read-out: DIZ
Assignment: determine reported zone of inhibition at 2000 µg/mL for the given molecules.
State just the number; it will be interpreted in mm.

### Prompt Which zone of inhibition at 2000 µg/mL is reported for this molecule? CC1(C)S[C@@H]2[C@H](NC(=O)[C@H](N)c3ccccc3)C(=O)N2[C@H]1C(=O)O
### Response 21

### Prompt Which zone of inhibition at 2000 µg/mL is reported for this molecule? Nc1n[nH]c(Nc2ccccc2)c1C(=O)Nc1ccc2c(c1)C(=O)c1ccccc1C2=O
### Response 14

### Prompt Which zone of inhibition at 2000 µg/mL is reported for this molecule? O=C(N[C@H](CO)[C@H](O)c1ccc([N+](=O)[O-])cc1)C(Cl)Cl
### Response 24

### Prompt Which zone of inhibition at 2000 µg/mL is reported for this molecule? Cc1onc(-c2ccccc2Cl)c1C(=O)N[C@@H]1C(=O)N2[C@@H]1SC(C)(C)[C@@H]2C(=O)O
### Response 30

###

Assignment: determine reported zone of inhibition at 2000 µg/mL for the given molecules.
Test system: Pseudomonas aeruginosa
Assay: Antibacterial activity against Pseudomonas aeruginosa at 2 mg/ml after 24 hrs by agar diffusion method
Assay type: functional
Conditions: read-out: DIZ
State just the number; it will be interpreted in mm.

### Prompt Which zone of inhibition at 2000 µg/mL is reported for this molecule? Cc1nn(-c2ccccc2)c2c1cnc1c(C(=O)Nc3ccc4c(c3)C(=O)c3ccccc3C4=O)c(Nc3ccccc3)nn12
### Response 19

### Prompt Which zone of inhibition at 2000 µg/mL is reported for this molecule? Cc1cc(C)c2c(N/N=C(/C#N)C(=O)Nc3ccc4c(c3)C(=O)c3ccccc3C4=O)n[nH]c2n1
### Response 27

### Prompt Which zone of inhibition at 2000 µg/mL is reported for this molecule? Nc1n[nH]cc1C(=O)Nc1ccc2c(c1)C(=O)c1ccccc1C2=O
### Response 16

### Prompt Which zone of inhibition at 2000 µg/mL is reported for this molecule? Cc1cc(C)c2c(n1)nn1c(N)c(C(=O)Nc3ccc4c(c3)C(=O)c3ccccc3C4=O)nnc21
### Response 21

### Prompt Which zone of inhibition at 2000 µg/mL is reported for this molecule? Cc1cc(C)n2nc(Nc3ccccc3)c(C(=O)Nc3ccc4c(c3)C(=O)c3ccccc3C4=O)c2n1
### Response 17

### Prompt Which zone of inhibition at 2000 µg/mL is reported for this molecule? O=C1c2ccccc2C(=O)c2cc(NC(=O)c3c(Nc4ccccc4)nn4c5c(cnc34)CCc3ccccc3-5)ccc21
### Response 20

### Prompt Which zone of inhibition at 2000 µg/mL is reported for this molecule? CS/C(Nc1ccccc1)=C(\C#N)C(=O)Nc1ccc2c(c1)C(=O)c1ccccc1C2=O
### Response 13

### Prompt Which zone of inhibition at 2000 µg/mL is reported for this molecule? Cc1ccc(C)n1-c1n[nH]c(Nc2ccccc2)c1C(=O)Nc1ccc2c(c1)C(=O)c1ccccc1C2=O
### Response 16

###

Test system: Alternaria solani
Assay: Antifungal activity against Alternaria solani at 2 mg/ml after 7 days by agar diffusion method
Type: functional
Details: 168 h, read-out: DIZ
observation-type: zone of inhibition at 2000 µg/mL (mm)
State just the number; it will be interpreted in mm.

### Prompt Which zone of inhibition at 2000 µg/mL is reported for this compound? Cc1cc(C)c2c(N/N=C(/C#N)C(=O)Nc3ccc4c(c3)C(=O)c3ccccc3C4=O)n[nH]c2n1
### Response 18

### Prompt Which zone of inhibition at 2000 µg/mL is reported for this compound? CS/C(Nc1ccccc1)=C(\C#N)C(=O)Nc1ccc2c(c1)C(=O)c1ccccc1C2=O
### Response 12

### Prompt Which zone of inhibition at 2000 µg/mL is reported for this compound? Cc1onc(-c2ccccc2Cl)c1C(=O)N[C@@H]1C(=O)N2[C@@H]1SC(C)(C)[C@@H]2C(=O)O [CLOXACILLIN]
### Response 20

### Prompt Which zone of inhibition at 2000 µg/mL is reported for this compound? Cc1cc(C)n2nc(Nc3ccccc3)c(C(=O)Nc3ccc4c(c3)C(=O)c3ccccc3C4=O)c2n1
### Response 14

### Prompt Which zone of inhibition at 2000 µg/mL is reported for this compound? CC1(C)S[C@@H]2[C@H](NC(=O)[C@H](N)c3ccccc3)C(=O)N2[C@H]1C(=O)O [AMPICILLIN]
### Response 19

### Prompt Which zone of inhibition at 2000 µg/mL is reported for this compound? O=C1c2ccccc2C(=O)c2cc(NC(=O)c3c(Nc4ccccc4)nn4c5c(cnc34)CCc3ccccc3-5)ccc21
### Response 22

### Prompt Which zone of inhibition at 2000 µg/mL is reported for this compound? COc1ccc(-c2ccnc3c(C(=O)Nc4ccc5c(c4)C(=O)c4ccccc4C5=O)c(Nc4ccccc4)nn23)cc1
### Response 17

### Prompt Which zone of inhibition at 2000 µg/mL is reported for this compound? O=C1c2ccccc2C(=O)c2cc(-n3cnc4n[nH]c(Nc5ccccc5)c4c3=O)ccc21
### Response 11

### Prompt Which zone of inhibition at 2000 µg/mL is reported for this compound? O=C(N[C@H](CO)[C@H](O)c1ccc([N+](=O)[O-])cc1)C(Cl)Cl [CHLORAMPHENICOL]
### Response 18

### Prompt Which zone of inhibition at 2000 µg/mL is reported for this compound? Cc1c(N/C(Nc2ccccc2)=C(\C#N)C(=O)Nc2ccc3c(c2)C(=O)c2ccccc2C3=O)c(=O)n(-c2ccccc2)n1C
### Response 21

### Prompt Which zone of inhibition at 2000 µg/mL is reported for this compound? Nc1n[nH]cc1C(=O)Nc1ccc2c(c1)C(=O)c1ccccc1C2=O
### Response 17

### Prompt Which zone of inhibition at 2000 µg/mL is reported for this compound? Cc1cc(C)c2c(n1)nn1c(N)c(C(=O)Nc3ccc4c(c3)C(=O)c3ccccc3C4=O)nnc21
### Response 19

### Prompt Which zone of inhibition at 2000 µg/mL is reported for this compound? Nc1n[nH]c(Nc2ccccc2)c1C(=O)Nc1ccc2c(c1)C(=O)c1ccccc1C2=O
### Response 14
